Origin of measurements: patent US10336702B2

Target: p-Akt1 in LNCaP cells (Homo sapiens, UniProt P31749)
Construct: SureFire assays to detect cellular p-Akt1, p-Akt2 and p-Akt3 levels in WM115 cells (Akt2/3) and LNCaP cells (Akt1); endogenous in cells; host or cells: LNCaP (ECACC 89110211)
Sequence (P31749 whole entry): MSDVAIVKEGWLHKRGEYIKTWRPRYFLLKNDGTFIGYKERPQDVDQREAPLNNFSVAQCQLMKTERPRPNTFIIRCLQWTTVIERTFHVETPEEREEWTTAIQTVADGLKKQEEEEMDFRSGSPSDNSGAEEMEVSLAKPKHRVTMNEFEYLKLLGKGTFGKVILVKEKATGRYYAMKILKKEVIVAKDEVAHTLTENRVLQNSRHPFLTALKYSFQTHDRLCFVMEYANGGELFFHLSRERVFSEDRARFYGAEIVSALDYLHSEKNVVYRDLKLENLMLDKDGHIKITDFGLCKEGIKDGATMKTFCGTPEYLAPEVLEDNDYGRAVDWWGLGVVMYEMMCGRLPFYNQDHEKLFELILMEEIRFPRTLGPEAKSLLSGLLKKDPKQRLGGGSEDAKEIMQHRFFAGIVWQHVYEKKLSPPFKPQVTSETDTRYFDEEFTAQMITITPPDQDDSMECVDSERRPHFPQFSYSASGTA
Assay: Phospho-Akt cellular SureFire assay, p-Akt1 in LNCaP cells
Format: cell-based
Conditions: read-out: Biological Assay 2 IC50 (nM) Akt1 LNCaP
IC50 values, listed per item

Solved entries (count: 3):
NC1(c2ccc(-c3ncc(NC(=O)C[C@H]4CC[C@H](N5CCCCC5=O)CC4)cc3-c3ccsc3)cc2)CCC1 ... > 30000 nM
COC(=O)N(C(C)C)[C@H]1CC[C@H](CC(=O)Nc2cnc(-c3ccc([C@]4(N)C[C@](C)(O)C4)cc3)c(-c3ccccc3)c2)CC1 ... 1800 nM
CC(=O)N(C)[C@H]1CC[C@H](CC(=O)Nc2cnc(-c3ccc(C(C)(C)N)nc3)c(-c3ccccc3)c2)CC1 ... > 30000 nM

Now for another entry.
Q: Return reported IC50; argument: `CC(C)OC(=O)N(C)[C@H]1CC[C@H](CC(=O)Nc2cc(-c3ccccc3)c(-c3ccc([C@]4(N)C[C@](C)(O)C4)cc3)cn2)CC1`
Ans: 11000 nM

----------
Entries and their measured IC50 follow.
Target: p-Akt3 in WM115 cells (Homo sapiens, UniProt Q9Y243)
Construct: SureFire assays to detect cellular p-Akt1, p-Akt2 and p-Akt3 levels in WM115 cells (Akt2/3) and LNCaP cells (Akt1); endogenous in cells; host or cells: WM115 (ECACC 91061232), insulin-stimulated
Sequence (Q9Y243 whole entry): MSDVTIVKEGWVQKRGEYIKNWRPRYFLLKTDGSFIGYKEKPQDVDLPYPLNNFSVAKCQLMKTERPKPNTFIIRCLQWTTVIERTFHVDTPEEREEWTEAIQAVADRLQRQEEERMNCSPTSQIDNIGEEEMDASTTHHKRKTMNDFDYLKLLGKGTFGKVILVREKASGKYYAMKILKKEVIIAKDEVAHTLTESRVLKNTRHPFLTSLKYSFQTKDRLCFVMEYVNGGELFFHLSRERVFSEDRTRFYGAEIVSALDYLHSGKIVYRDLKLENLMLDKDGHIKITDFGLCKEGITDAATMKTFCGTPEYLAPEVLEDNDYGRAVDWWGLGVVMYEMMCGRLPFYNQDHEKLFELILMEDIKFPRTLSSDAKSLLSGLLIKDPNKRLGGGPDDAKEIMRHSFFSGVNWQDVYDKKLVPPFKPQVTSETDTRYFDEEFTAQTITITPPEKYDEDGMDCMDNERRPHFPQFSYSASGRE
Assay: Phospho-Akt cellular SureFire assay, p-Akt3 in WM115 cells
Type: cell-based
Details: insulin stimulated, read-out: Biological Assay 2 IC50 (nM) Akt3 WM115
Could you write the number and then its unit?

COC(=O)N(C)[C@H]1CC[C@H](CC(=O)Nc2cc(-c3ccccc3)c(-c3ccc(C4(N)CCC4)cc3)cn2)CC1 ... 910 nM
CC(=O)N[C@H]1CC[C@H](CC(=O)Nc2cnc(-c3ccc(C4(N)CCC4)cc3)c(-c3ccsc3C)c2)CC1 ... 1100 nM
CC(=O)N[C@H]1CC[C@H](CC(=O)Nc2cnc(-c3ccc(C4(N)CCC4)cc3)c(-c3ccccc3)c2)CC1 ... 120 nM

Q: Recall the recorded IC50 for `CCC(=O)N(C)[C@H]1CC[C@H](CC(=O)Nc2cc(-c3ccccc3)c(-c3ccc([C@]4(N)C[C@](C)(O)C4)c(F)c3)nn2)CC1` with p-Akt3 in WM115 cells (Homo sapiens, UniProt Q9Y243) and state it.
Ans: 32 nM

Q: Provide value of IC50 for this record tested with p-Akt3 in WM115 cells (Homo sapiens, UniProt Q9Y243): `C[C@]1(O)C[C@@](N)(c2ccc(-c3nnc(NC(=O)C[C@H]4CC[C@H](N5CCCCC5=O)CC4)cc3-c3ccccc3)cc2)C1`
Ans: 5 nM

Q: Please tell me: IC50 of `CC(=O)N[C@H]1CC[C@H](CC(=O)Nc2cnc(-c3ccc(C(C)(C)N)cc3)c(-c3ccccc3)c2)CC1` , system p-Akt3 in WM115 cells (Homo sapiens, UniProt Q9Y243)?
Ans: 1800 nM
